Recorded IC50, one value per entry.
study_target: G-protein coupled receptor 55 (Homo sapiens, UniProt Q9Y2T6)
Sequence (Q9Y2T6 whole entry, the tested form may be a part): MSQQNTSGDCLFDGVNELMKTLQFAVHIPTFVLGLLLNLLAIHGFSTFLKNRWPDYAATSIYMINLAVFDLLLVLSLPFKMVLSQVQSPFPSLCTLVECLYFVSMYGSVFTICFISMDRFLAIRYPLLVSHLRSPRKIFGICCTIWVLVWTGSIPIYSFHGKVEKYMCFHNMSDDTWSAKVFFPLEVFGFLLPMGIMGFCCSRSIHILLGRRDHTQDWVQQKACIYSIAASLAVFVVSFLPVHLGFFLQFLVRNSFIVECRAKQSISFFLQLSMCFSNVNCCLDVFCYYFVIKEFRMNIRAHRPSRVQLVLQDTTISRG
measurement_protocol: Antagonist activity against human GPR55 expressed in CHO cells assessed as reduction in LPI-induced beta-arrestin recruitment by beta-galactosidase enzyme fragment complementation method

{"compound_smiles": "O=C1N=C2SCCCN2C1(c1ccccc1)c1ccccc1", "IC50": "> 10 µM"}
{"compound_smiles": "Cc1ccc(C(=O)Oc2cccc(/C=C3\\N=C4SCCCCN4C3=O)c2)cc1", "IC50": "> 10 µM"}
{"compound_smiles": "O=C1/C(=C/c2ccc(Br)cc2)N=C2SCCCN12", "IC50": "> 10 µM"}
{"compound_smiles": "O=C1/C(=C/c2cccc(OCc3ccc(F)cc3)c2)N=C2SCCCCN12", "IC50": "> 10 µM"}
{"compound_smiles": "O=C1/C(=C/c2ccc(Cl)cc2)N=C2SCCCN12", "IC50": "> 10 µM"}
{"compound_smiles": "O=C1N2CCCCSC2=NC1(c1ccccc1)c1ccccc1", "IC50": "> 10 µM"}
{"compound_smiles": "O=C1/C(=C/c2c(Cl)cccc2Cl)N=C2SCCCN12", "IC50": "> 10 µM"}
{"compound_smiles": "O=C1/C(=C/c2cccc(F)c2F)N=C2SCCCN12", "IC50": "3.15 µM"}
{"compound_smiles": "COc1ccc(/C=C2\\N=C3SCCCN3C2=O)c(OC)c1", "IC50": "9.77 µM"}
{"compound_smiles": "COc1ccc(/C=C2\\N=C3SCCCN3C2=O)cc1", "IC50": "> 10 µM"}
{"compound_smiles": "O=C1/C(=C/c2ccccc2)N=C2SCCCN12", "IC50": "> 10 µM"}
{"compound_smiles": "O=C1/C(=C/c2ccc(F)cc2F)N=C2SCCCN12", "IC50": "3.46 µM"}
{"compound_smiles": "COc1ccc(/C=C2\\N=C3SCCCN3C2=O)cc1OC", "IC50": "> 10 µM"}
{"compound_smiles": "O=C1/C(=C/c2ccccc2F)N=C2SCCCN12", "IC50": "5.56 µM"}
{"compound_smiles": "O=C1/C(=C/c2cccc([N+](=O)[O-])c2)N=C2SCCCN12", "IC50": "> 10 µM"}
{"compound_smiles": "O=C1N2CCCSC2=NC1(c1ccccc1)c1ccccc1", "IC50": "> 10 µM"}

Source: ChEMBL document CHEMBL3217528
